- test_details: Plasma concentration versus time of Compound I and metabolite Compound III in patients dosed QD or BID with Form B of Compound II plus fulvestrant
- Assay type: in vivo, human
- applied_conditions: human, plasma, oral, 500 mg, Cohort 4, 500 mg QD of Form B, Day 29, […]; read-out: Compound III Concentration, Mean
- From the text: Patients were enrolled into 1 of 2 parallel, independently operating, dose-escalation dosing cohorts with Form B of Compound II administered continuously either once daily (QD) or twice daily (BID) with food with fixed-dose fulvestrant (intramuscularly every 14 days for the first three injections and then every 28 days). Pre- or perimenopausal patients also received goserelin for the duration of study treatment. […]
property_label: concentration at 24 h (ng/mL)
Use ng/mL as the unit, but write only the number.

INPUT: concentration at 24 h for O=C1NCC2(CCCCC2)n2c1cc1cnc(Nc3ccc(N4CCNCC4)cn3)nc12 [Compound III] ?
OUTPUT: 1.24

---

- test_details: Plasma concentration versus time of Compound I and metabolite Compound III in patients dosed QD or BID with Form B of Compound II plus fulvestrant
- Type: in vivo, human
- applied_conditions: human, plasma, oral, 650 mg, Cohort 5, 650 mg QD of Form B, Day 15; read-out: Trough Compound I Concentration, Median
- Source text: Patients were enrolled into 1 of 2 parallel, independently operating, dose-escalation dosing cohorts with Form B of Compound II administered continuously either once daily (QD) or twice daily (BID) with food with fixed-dose fulvestrant (intramuscularly every 14 days for the first three injections and then every 28 days). Pre- or perimenopausal patients also received goserelin for the duration of study treatment. […]
property_label: concentration at 15 day (ng/mL)
All answers are understood in ng/mL, so give the number only.

INPUT: I am curious: what concentration at 15 day value has been reported for CC(C)N1CCN(c2ccc(Nc3ncc4cc5n(c4n3)C3(CCCCC3)CNC5=O)nc2)CC1 ?
OUTPUT: 27.4

---

- test_details: Noncompartmental pharmacokinetic parameters (Cmax, Tmax, AUC, Racc) in QD and BID cohorts of Form B
- Format: in vivo, human
- applied_conditions: human, plasma, oral, 150 mg, Compound I; 150 mg BID of Form B; Cohort 7; Day 1; read-out: AUClast (Median)
property_label: AUC(0-t) (ng·h/mL)
Just the number please, in ng·h/mL, no unit attached.

INPUT: # lookup: AUC(0-t) of CC(C)N1CCN(c2ccc(Nc3ncc4cc5n(c4n3)C3(CCCCC3)CNC5=O)nc2)CC1
OUTPUT: 141

---

- test_details: Plasma concentration versus time of Compound I and metabolite Compound III in patients dosed QD or BID with Form B of Compound II plus fulvestrant
- Format: in vivo, human
- applied_conditions: human, plasma, oral, 500 mg, 500 mg QD of Form B, Day 1, 4.0 h, Median; read-out: Compound I Concentration
property_label: concentration at 4 h (ng/mL)
Entry rule: numbers only, all in ng/mL.

INPUT: What value of concentration at 4 h has been recorded for this entry: CC(C)N1CCN(c2ccc(Nc3ncc4cc5n(c4n3)C3(CCCCC3)CNC5=O)nc2)CC1 [Compound I]
OUTPUT: 35.3

---

- test_details: Steady-state AUC0-24,ss, (AUC0-24,ss)/dose, half-life and time to steady state: Compound I versus palbociclib, ribociclib, abemaciclib
- Assay type: in vivo, human
- applied_conditions: human, plasma, oral; 300 mg QD of Form B of Compound II, Day 29
property_label: Cmax (ng/mL)
Record the value in ng/mL, omitting the unit from your answer.

INPUT: Return reported Cmax; argument: CC(C)N1CCN(c2ccc(Nc3ncc4cc5n(c4n3)C3(CCCCC3)CNC5=O)nc2)CC1
OUTPUT: 47
